Test system: 991263-137-R1-J2-PDC complex spheroid viability;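 further: spheroids exposed to compounds for 7 days before readout; 100% = DMSO vehicle control viability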
experiment-description: Anticancer human tumor 991263-137-R1-J2-PDC patient-derived colon adenocarcinoma cell line growth inhibition [POLQ]
condition-parameters: second compound 0.316 µM; first compound 1 µM; stronger effect = lower value
The following compounds are listed with their measured viability, T/C values.
reported-metric: viability, T/C (%)

>>> meas_value("COc1cccc2c1C(=O)c1c(O)c3c(c(O)c1C2=O)CC(O)(C(=O)CO)CC3OC1CC(N)C(O)C(C)O1 (stereo not given) + Nc1ccc(C#CCN(C(=O)Cc2ncc(C(F)(F)F)cc2C(F)(F)F)c2ccc(F)cc2)nn1")
53
>>> meas_value("C=CCn1c(=O)c2cnc(Nc3ccc(N4CCN(C)CC4)cc3)nc2n1-c1cccc(C(C)(C)O)n1 + COC1C(OC(N)=O)C(O)C(Oc2ccc3c(O)c(NC(=O)c4ccc(O)c(CC=C(C)C)c4)c(=O)oc3c2C)OC1(C)C")
108
>>> meas_value("O=C(Nc1ccc(O)c(NS(=O)(=O)c2ccc(F)cc2)c1)c1ccc(-c2ccccc2)cc1 + Nc1ccc(C#CCN(C(=O)Cc2ncc(C(F)(F)F)cc2C(F)(F)F)c2ccc(F)cc2)nn1")
105
>>> meas_value("CC1COCCN1c1cc(-c2ccnn2C)c2ccnc(-c3ccn[nH]3)c2n1 (stereo not given) + COC1C(OC(N)=O)C(O)C(Oc2ccc3c(O)c(NC(=O)c4ccc(O)c(CC=C(C)C)c4)c(=O)oc3c2C)OC1(C)C")
46
>>> meas_value("CC1COCCN1c1cc(-c2ccnn2C)c2ccnc(-c3ccn[nH]3)c2n1 (stereo not given) + Cc1cccc(N(C)C(=O)C2C(O)CCN2c2nc(C)cc(C(F)(F)F)c2C#N)c1")
44.3
